Here, each record is paired with measured EC50 data.
# SYSTEM_UNDER_TEST: C3a anaphylatoxin chemotactic receptor (Homo sapiens, UniProt Q16581)
# ASSAY_TEXT: Agonist activity at human C3a receptor in human U937 cells assessed as induction of intracellular calcium release
# Type: functional, cell-based, U-937
# ASSAY_SETUP: read-out: EC50
Peptide text beside a SMILES is read from it.

The cases that follow already have their EC50 on record.
CC(C)C[C@H](NC(=O)[C@@H](NC(=O)[C@H](CC(C)C)NC(=O)[C@@H](N)Cc1ccc(O)cc1)[C@@H](C)O)C(=O)N[C@@H](C)C(=O)N[C@@H](CCCN=C(N)N)C(=O)O (H-YLTLAR-OH): 2500 nM
CC(C)C[C@H](NC(=O)[C@@H]1CCCN1C(=O)[C@H](CC(C)C)NC(=O)[C@@H](N)Cc1ccccc1)C(=O)N[C@@H](C)C(=O)N[C@@H](CCCNC(=N)N)C(=O)O (H-FLPLAR-OH): 420 nM

Form field: EC50 recorded for CC(C)C[C@H](NC(=O)[C@@H]1CCCN1C(=O)[C@H](CCC(N)=O)NC(=O)[C@@H](N)Cc1ccccc1)C(=O)N[C@@H](C)C(=O)N[C@@H](CCCNC(=N)N)C(=O)O (H-FQPLAR-OH) with C3a anaphylatoxin chemotactic receptor (Homo sapiens, UniProt Q16581) (enter value)
5300 nM

###

# SYSTEM_UNDER_TEST: C5a anaphylatoxin chemotactic receptor 1 (Homo sapiens, UniProt P21730)
# Sequence (P21730 whole entry): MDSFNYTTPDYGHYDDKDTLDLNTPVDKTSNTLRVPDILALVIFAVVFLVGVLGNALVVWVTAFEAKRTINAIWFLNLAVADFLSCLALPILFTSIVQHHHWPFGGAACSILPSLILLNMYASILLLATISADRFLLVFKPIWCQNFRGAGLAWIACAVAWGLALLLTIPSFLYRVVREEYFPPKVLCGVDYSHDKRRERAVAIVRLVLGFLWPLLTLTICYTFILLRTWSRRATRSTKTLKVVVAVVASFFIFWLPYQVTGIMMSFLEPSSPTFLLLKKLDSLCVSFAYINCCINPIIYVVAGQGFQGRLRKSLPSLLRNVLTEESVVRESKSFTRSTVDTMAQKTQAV
# ASSAY_TEXT: Displacement of [125I-C5a] from C5a receptor in human PBMC by scintillation counting
Peptide text beside a SMILES is read from it.
MEASUREMENT_KIND: IC50 (nM)
Please reply with the bare figure in nM and do not write the unit itself.

The cases that follow already have their IC50 on record.
CSCC[C@H](NC(=O)[C@H](CC(=O)O)N(C)C(=O)[C@H](CCCCN)NC(=O)[C@H](Cc1ccccc1)NC(=O)[C@H](CO)NC(=O)[C@@H](N)Cc1ccc(O)cc1)C(=O)N1CCC[C@H]1C(=O)N[C@@H](CC(C)C)C(=O)N[C@H](C)C(=O)N[C@@H](CCCNC(=N)N)C(=O)O: 29000
CSCC[C@H](NC(=O)[C@@H]1CCCN1C(=O)[C@H](CCCCN)NC(=O)[C@H](Cc1ccccc1)NC(=O)[C@H](CO)NC(=O)[C@@H](N)Cc1ccc(O)cc1)C(=O)N1CCC[C@H]1C(=O)N[C@@H](CC(C)C)C(=O)N(C)[C@H](C)C(=O)N[C@@H](CCCN=C(N)N)C(=O)O: 2000
CC(C)C[C@H](NC(=O)[C@H](CC(=O)O)NC(=O)[C@H](C)NC(=O)[C@H](CC(C)C)NC(=O)[C@@H](NC(=O)[C@H](CC(C)C)NC(=O)[C@@H](N)Cc1cnc[nH]1)[C@@H](C)O)C(=O)N[C@@H](CC(C)C)C(=O)N[C@@H](CS)C(=O)N[C@@H](CS)C(=O)N[C@@H](CC(C)C)C(=O)N[C@@H](CO)C(=O)N[C@@H](CC(C)C)C(=O)N1CCC[C@H]1C(=O)N[C@@H](Cc1ccccc1)C(=O)O (H-HLTLADLLCCLSLPF-OH): 560

Let us move to another entry and its IC50.
Given the entry CC[C@H](C)[C@H](NC(=O)[C@H](C)NC(=O)[C@H](CC(N)=O)NC(=O)[C@@H](NC(=O)[C@@H](NC(=O)[C@H](CCCNC(=N)N)NC(=O)[C@H](CCCCN)NC(=O)[C@H](C)NC(=O)[C@H](CCC(=O)O)NC(=O)[C@H](Cc1ccccc1)NC(=O)[C@H](C)NC(=O)[C@@H](NC(=O)[C@@H](NC(=O)[C@@H](N)Cc1c[nH]c2ccccc12)C(C)C)[C@@H](C)O)[C@@H](C)O)[C@@H](C)CC)C(=O)N[C@@H](Cc1c[nH]c2ccccc12)C(=O)O (H-WVTAFEAKRTINAIW-OH) , report its measured IC50.
1700

###

# SYSTEM_UNDER_TEST: C3a anaphylatoxin chemotactic receptor (Homo sapiens)
# Sequence (Q16581 whole entry): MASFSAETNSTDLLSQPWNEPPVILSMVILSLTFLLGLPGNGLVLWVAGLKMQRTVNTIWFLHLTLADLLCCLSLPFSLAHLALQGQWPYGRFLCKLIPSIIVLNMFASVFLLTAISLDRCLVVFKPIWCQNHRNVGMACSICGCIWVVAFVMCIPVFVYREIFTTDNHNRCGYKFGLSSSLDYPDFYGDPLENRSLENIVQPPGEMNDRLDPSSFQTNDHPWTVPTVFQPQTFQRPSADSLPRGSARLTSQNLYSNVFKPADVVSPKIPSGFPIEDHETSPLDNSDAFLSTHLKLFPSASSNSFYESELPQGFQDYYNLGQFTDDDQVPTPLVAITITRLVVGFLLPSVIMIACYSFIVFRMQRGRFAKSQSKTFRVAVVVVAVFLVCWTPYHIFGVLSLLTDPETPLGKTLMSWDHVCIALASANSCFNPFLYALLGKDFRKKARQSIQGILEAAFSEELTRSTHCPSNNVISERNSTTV
# ASSAY_TEXT: Displacement of [125I-C3a] from C3a receptor in human PBMC by scintillation counting
# ASSAY_SETUP: read-out: IC50
pIC50: −log10 of the molar value. Peptide text beside a SMILES is read from it.
Binary call on pIC50: Fulfilled from 6 upward, Not fulfilled beneath that.

Example results:
CC(C)C[C@H](NC(=O)[C@H](CC(=O)O)NC(=O)[C@H](C)NC(=O)[C@H](CC(C)C)NC(=O)[C@@H](NC(=O)[C@H](CC(C)C)NC(=O)[C@@H](N)Cc1cnc[nH]1)[C@@H](C)O)C(=O)N[C@@H](CC(C)C)C(=O)N[C@@H](CS)C(=O)N[C@@H](CS)C(=O)N[C@@H](CC(C)C)C(=O)N[C@@H](CO)C(=O)N[C@@H](CC(C)C)C(=O)N1CCC[C@H]1C(=O)N[C@@H](Cc1ccccc1)C(=O)O (H-HLTLADLLCCLSLPF-OH): Fulfilled
CC(C)C[C@H](NC(=O)[C@@H](N)Cc1ccccc1)C(=O)N[C@H](C(=O)N[C@@H](CC1CCCCC1)C(=O)N[C@@H](C)C(=O)N[C@@H](CCCNC(=N)N)C(=O)O)[C@@H](C)O: Fulfilled
CC(C)C[C@H](NC(=O)CNC(=O)[C@H](CC(C)C)NC(=O)[C@@H](N)Cc1ccccc1)C(=O)N[C@@H](C)C(=O)N[C@@H](CCCNC(=N)N)C(=O)O (H-FLGLAR-OH): Fulfilled
CC(C)C[C@H](NC(=O)[C@@H](NC(=O)[C@H](Cc1c[nH]c2ccccc12)NC(=O)[C@@H](N)Cc1c[nH]c2ccccc12)[C@@H](C)O)C(=O)N[C@@H](C)C(=O)N[C@@H](CCCNC(=N)N)C(=O)O (H-WWTLAR-OH): Fulfilled
CC(C)C[C@H](NC(=O)CNC(=O)[C@H](CC(C)C)NC(=O)[C@@H](N)Cc1cnc[nH]1)C(=O)N[C@@H](C)C(=O)N[C@@H](CCCNC(=N)N)C(=O)O (H-HLGLAR-OH): Not fulfilled
CC(C)C[C@H](NC(=O)CNC(=O)[C@H](CC(C)C)NC(=O)[C@H](CCCCN)NC(=O)[C@H](CO)NC(=O)[C@H](C)NC(=O)[C@H](CCCN=C(N)N)NC(=O)[C@H](Cc1ccc(O)cc1)NC(=O)[C@H](CCCCN)NC(=O)[C@H](CCCCN)NC(=O)CNC(=O)[C@H](Cc1c[nH]c2ccccc12)NC(=O)[C@@H](N)Cc1c[nH]c2ccccc12)C(=O)N[C@@H](C)C(=O)N[C@@H](CCCN=C(N)N)C(=O)O (H-WWGKKYRASKLGLAR-OH): Fulfilled
CC(C)C[C@H](NC(=O)[C@@H](N)Cc1ccccc1)C(=O)N[C@H](C(=O)N[C@@H](CO)C(=O)N[C@@H](C)C(=O)N[C@@H](CCCNC(=N)N)C(=O)O)[C@@H](C)O (H-FLTSAR-OH): Not fulfilled
CC[C@H](C)[C@H](NC(=O)[C@H](C)NC(=O)[C@H](CC(N)=O)NC(=O)[C@@H](NC(=O)[C@@H](NC(=O)[C@H](CCCNC(=N)N)NC(=O)[C@H](CCCCN)NC(=O)[C@H](C)NC(=O)[C@H](CCC(=O)O)NC(=O)[C@H](Cc1ccccc1)NC(=O)[C@H](C)NC(=O)[C@@H](NC(=O)[C@@H](NC(=O)[C@@H](N)Cc1c[nH]c2ccccc12)C(C)C)[C@@H](C)O)[C@@H](C)O)[C@@H](C)CC)C(=O)N[C@@H](Cc1c[nH]c2ccccc12)C(=O)O (H-WVTAFEAKRTINAIW-OH): Not fulfilled
CC[C@H](C)[C@H](NC(=O)[C@@H](N)Cc1ccccc1)C(=O)N1CCC[C@H]1C(=O)N[C@@H](CC(C)C)C(=O)N[C@@H](C)C(=O)N[C@@H](CCCNC(=N)N)C(=O)O (H-FIPLAR-OH): Fulfilled
CSCC[C@H](NC(=O)[C@@H]1CCCN1C(=O)[C@H](CCCCN)NC(=O)[C@H](Cc1ccccc1)NC(=O)[C@H](CO)NC(=O)[C@@H](N)Cc1ccc(O)cc1)C(=O)N1CCC[C@H]1C(=O)N[C@@H](CC(C)C)C(=O)N(C)[C@H](C)C(=O)N[C@@H](CCCN=C(N)N)C(=O)O: Fulfilled

Is the recorded value of pIC50 equal to or greater than 6 for this molecule? CC(C)C[C@H](NC(=O)[C@@H]1CCCN1C(=O)[C@@H](N)Cc1c[nH]c2ccccc12)C(=O)N1CCC[C@H]1C(=O)N[C@@H](CCCNC(=N)N)C(=O)O (H-WPLPR-OH)
Not fulfilled

Is the recorded value of pIC50 equal to or greater than 6 for this molecule? CC(C)C[C@H](NC(=O)[C@@H](NC(=O)[C@H](Cc1ccc(O)cc1)NC(=O)[C@@H](N)Cc1ccccc1)[C@@H](C)O)C(=O)N[C@@H](C)C(=O)N[C@@H](CCCNC(=N)N)C(=O)O (H-FYTLAR-OH)
Fulfilled

Is the recorded value of pIC50 equal to or greater than 6 for this molecule? CC(C)C[C@H](NC(=O)[C@@H](NC(=O)[C@H](Cc1c[nH]c2ccccc12)NC(=O)[C@@H](N)Cc1ccccc1)[C@@H](C)O)C(=O)N[C@@H](C)C(=O)N[C@@H](CCCNC(=N)N)C(=O)O (H-FWTLAR-OH)
Fulfilled
